A collection of sequences and their measured pull-down binding Z-score
- Tested on: G-clamp-N3 (biotin conjugate)
- Assay Text: pull-down binding Z-score (relative to library population); higher = stronger binding
- Test Context: RNA library: Library-1 (pre-miRNA loops + repeats)
Lab note: jot the number down without any unit.

The cases that follow already have their pull-down binding Z-score on record.
{"columns": ["Sequence Data", "Assayed System", "Quantitative Result"],
 "data": [
  ["CUUUCUGUUGUCUGAAAGAAAGGAAAG [hsa-mir-519a-1_519a-2]", "G-clamp-N3 (biotin conjugate)", -0.55],
  ["CUCUGGUCUAUAAUGGGUUAAAUAGUAGAG [hsa-mir-609]", "G-clamp-N3 (biotin conjugate)", 0.305],
  ["GGAGCUGGCUGCUGGCCUCAGUUCU [hsa-mir-5001]", "G-clamp-N3 (biotin conjugate)", -1.38],
  ["AUCAGCAGAGACAUGAGGUGAUCAAAAACCUUUUUUCAAAGCAGUGGG [hsa-mir-4300]", "G-clamp-N3 (biotin conjugate)", -0.911],
  ["CUGGGAAGAGACCAUGAACAGGUUAGUCCAG [hsa-mir-4327]", "G-clamp-N3 (biotin conjugate)", -0.176],
  ["UGUUGGGGGGACA [hsa-mir-4262]", "G-clamp-N3 (biotin conjugate)", -0.216]
]}

Proceed to the following item.
Lab entry: G-clamp-N3 (biotin conjugate) assay, sequence UUUGUGGGGCGAGGAGGGACCUGUACUAGCCAUGGUUCUGAUCACAUAUG [hsa-mir-6834] , pull-down binding Z-score = 0.432

====

- Tested on: TO-N3-2 (biotin conjugate)
- Assay Text: pull-down binding Z-score (relative to library population); higher = stronger binding
- Test Context: RNA library: Library-2
// values below are reported pull-down binding Z-score
Answer with a number only.

Below are worked cases with known answers.
{"columns": ["Sequence Data", "pull-down binding Z-score"],
 "data": [
  ["UAGGAUUUGGGAGUUAUACUA [hsa-mir-5690]", -0.349],
  ["GACAGUGGUUGCCUACGGGUACGCUGCUUGUC", 0.01]
]}

For this sequence ( AACAGCUUUGCGAAGUGUUGUU [hsa-mir-4425] ), measured pull-down binding Z-score is -0.553

Looking up UUUGCCUAUAAAAGUAAUGGCAAA [hsa-mir-548an] , I found its pull-down binding Z-score recorded as -0.888

The sequence listed as CUGGCAGUAACCAG [SHAPE_invivo_SARS-CoV-2_Motif_538] has a reported pull-down binding Z-score of -0.733

Entry GAUGGUGGCUGUAUUAAUGCUAACCAAGUCAUCGUC ; pull-down binding Z-score = 1.4

====

- Test system: G-clamp-N3 (biotin conjugate)
- Assay Text: pull-down binding Z-score (relative to library population); higher = stronger binding
- Test Context: RNA library: Library-1 (pre-miRNA loops + repeats)
Listed below: pull-down binding Z-score values for each entry.

Example entries begin here.
{"columns": ["Sequence Data", "Assayed System", "pull-down binding Z-score"],
 "data": [
  ["AGGACACAGGCUGGCACUGAGGUCCC [hsa-mir-6887]", "G-clamp-N3 (biotin conjugate)", -0.394],
  ["UAAGUUGUGAUCAUACCA [hsa-mir-1273g]", "G-clamp-N3 (biotin conjugate)", -1.51],
  ["UUUCUCUUAUGUGAAAAAAAAGAAG [hsa-mir-525]", "G-clamp-N3 (biotin conjugate)", -1.41],
  ["GCCACAUGAGCUGGGCCUCGUGGGC [hsa-mir-770]", "G-clamp-N3 (biotin conjugate)", -0.657],
  ["GGCAGAAAUGUC [hsa-mir-8053]", "G-clamp-N3 (biotin conjugate)", 0.69],
  ["AGUUAGAAUUCUUAAGUAUCAAAACUAAAU [hsa-mir-4760]", "G-clamp-N3 (biotin conjugate)", -1.22]
]}

For GAGGGGCUUACUGCCCUGUGGGGCUCUCUGGACCCAGUGCCAUGCUUCUC [hsa-mir-6728] the sequence record lists pull-down binding Z-score as 0.541

Data point: UGGUUGGUUGGUUGGUUGGUUGGU [G4_(UGGU)6] ; pull-down binding Z-score = 1.53

Form: sequence = GUCCGGGUGGGUUCCGGCA [hsa-mir-657] ; pull-down binding Z-score = -2.05

pull-down binding Z-score reading for UCCACCCCCAGAGAAUCCCUAAACCGGGGGUGGA [hsa-mir-1289-1] : -1.69

Record GGCGCUGGGACCCCACUAGGGUGGCGCC [hsa-mir-4488] , field pull-down binding Z-score: 1.6

====

- Tested on: TO-N3 (biotin conjugate)
- Assay Text: pull-down binding Z-score (relative to library population); higher = stronger binding
- Test Context: RNA library: Library-2
Hi, to clarify the labels: YES covers pull-down binding Z-score from 0.2 upward, NO covers anything below 0.2.

Solved cases (4 shown):
{"columns": ["Sequence Data", "Answer Label"],
 "data": [
  ["ACCAUUUAAUGAUGGU [DMSMaPseq_invitro_SARS-CoV-2_Motif_383]", "NO"],
  ["AAGCAGGGUCGGGCCUGGUU [hsa-mir-7641-2]", "YES"],
  ["GGUAUGGAUUCUGUUGUUUUGGCAACAUUCU [hsa-mir-8088]", "NO"],
  ["GCUAACAAACAUGCUGAUUUUGACACAUGGUUUAGCCAGCGUGGUGGUAGU", "NO"]
]}

Say whether UGCAGAUGUGGACUGCUAAAUGCA [hsa-mir-1253] shows pull-down binding Z-score of 0.2 or more.
NO

====

- System: G-clamp-N3 (biotin conjugate)
- Assay Text: pull-down binding Z-score (relative to library population); higher = stronger binding
- Test Context: RNA library: Library-1 (pre-miRNA loops + repeats)
// reported pull-down binding Z-score per item

Example entries and their recorded answers appear below.
{"columns": ["Sequence Data", "Result"],
 "data": [
  ["GUGUAGGGGUGGCUACAC [hsa-mir-4717]", 0.957],
  ["GGGCGCCGGCGGCCGGGAGAUCCGCGCUUCCUGAAUCCCGGCCGGCCCGCCCGGCGCCC [hsa-mir-4497]", -0.232],
  ["GUGUUUGUGACAUAAUUUGU [hsa-mir-325]", -1.02],
  ["UGGUAUCCUGACCG [hsa-mir-1973]", -0.747],
  ["CUGUGAGGACAUCCAGGGUCACAG [hsa-mir-125a]", 3.76]
]}

Documented pull-down binding Z-score of ACACUGGGCUGCCCCCACUGCCCAGUGC [hsa-mir-4277] : -0.963

Data point: CCCAUAUAAUAUUAGGGG [hsa-mir-4483] ; pull-down binding Z-score = 2.5

// pull-down binding Z-score value for GGAUAAGAAUCAGUCAC [hsa-mir-217] : -0.462

Briefly, pull-down binding Z-score measured for GUGCUGGCAGUGGCCACGUAA [hsa-mir-4276] : 0.096

Item: AGAUAGUGAAGUAGAUUAGCAUCUACU [hsa-mir-18a] | pull-down binding Z-score: -0.59

Looking up AAGGUGGAGUUCUGGGUGCUGUUUUCCCACUCU [hsa-mir-378i] , I found its pull-down binding Z-score recorded as -0.335

====

- System: TO-N3 (biotin conjugate)
- Assay Text: pull-down binding Z-score (relative to library population); higher = stronger binding
- Test Context: RNA library: Library-2
Rule: pull-down binding Z-score under -0.7 gives Condition not met, otherwise Condition met.

Please review the following examples before continuing.
{"columns": ["Sequence Data", "Answer Label"],
 "data": [
  ["AGUGAUGGAACU [DMSMaPseq_invitro_SARS-CoV-2_Motif_229]", "Condition met"],
  ["UAUUGCAAAGAUUUUCAAUA [hsa-mir-3915]", "Condition not met"],
  ["UGCUCAAGAAGCUUAUGAGCA [SHAPE_invivo_SARS-CoV-2_Motif_229]", "Condition met"],
  ["GUUCUUUGAGAAC [IAV_invivo_PA_3_Motif_25+IAV_invivo_PA_3_Motif_25]", "Condition met"]
]}

Now let's try a different one.
Hi team, for CUUCACAUAUGUAUUGUUCUUUUUACCCUCCAGAUGAGGAUGAAGAAGAAGGUGAUUGUGAAG , is the recorded pull-down binding Z-score at or above -0.7?
Condition met

====

- Tested on: G-clamp-N3 (biotin conjugate)
- Assay Text: pull-down binding Z-score (relative to library population); higher = stronger binding
- Test Context: RNA library: Library-1 (pre-miRNA loops + repeats)
Property Name: pull-down binding Z-score
Form field (numeric): enter value without unit.

Below: 9 sequences and their reported pull-down binding Z-score.
{"columns": ["Sequence Data", "Assayed System", "pull-down binding Z-score"],
 "data": [
  ["GGCUCCUGGCGCUGAUGCC [hsa-mir-6886]", "G-clamp-N3 (biotin conjugate)", -0.347],
  ["CCUGCAGGUGAGAGCGGGAACACCUGCAU [hsa-mir-7112]", "G-clamp-N3 (biotin conjugate)", 0.953],
  ["CAUUACUAAACUCAGUAAUG [hsa-mir-451b]", "G-clamp-N3 (biotin conjugate)", 0.93],
  ["UUACCCAACGUCUCUGAGUCUCGGUUUUGAGAGGGUGAGUAA [hsa-mir-7973-1]", "G-clamp-N3 (biotin conjugate)", 0.981],
  ["CCGGCCCGUUAGUUGCCCGGGCCCG [hsa-mir-3181]", "G-clamp-N3 (biotin conjugate)", -0.29],
  ["GGCUGGCCCCCUGCUUCGUGCCCAUCC [hsa-mir-937]", "G-clamp-N3 (biotin conjugate)", -1.14],
  ["UGUGACCUGGAGCAGCUCAGGAGGGCUUCCUGGGUGAGGUGGCAGGUUACA [hsa-mir-4311]", "G-clamp-N3 (biotin conjugate)", 2.01],
  ["CGGACACCCGGCCUCCACUUUCUGUGGCAGGUACCUCCUCCA [hsa-mir-4505]", "G-clamp-N3 (biotin conjugate)", 0.149],
  ["CUUGUGGUGAAGUGGACCGCACAAG [hsa-mir-99a]", "G-clamp-N3 (biotin conjugate)", 1.24]
]}

Recorded result, CCCGGAUACCUCAGAAAUUCGG [hsa-mir-760] , pull-down binding Z-score: -0.822
